- Study system: Nonstructural protein 5A (Hepatitis C virus)
- Method summary: Inhibition of NS5A L31M mutant in HCV genotype 2b infected in HuH7 replicon cells assessed as decrease in viral replication after 3 days by RT-PCR method
- Assay type: cell-based
- Experimental setup: Hepatitis C virus subtype 2b

Compound string	Study system	Value unit	EC90
CCCc1ncc([C@@H]2Oc3cc(-c4cnc([C@@H]5CCCN5C(=O)[C@@H](NC(=O)OC)C(C)C)[nH]4)cc(F)c3-c3cc4cc(-c5cnc([C@@H]6CCCN6C(=O)[C@@H](NC(=O)OC)[C@@H]6CCOC(C)(C)C6)[nH]5)ccc4n32)s1	Nonstructural protein 5A (Hepatitis C virus)	nM	0.015
COC(=O)N[C@H](C(=O)N1CCC[C@H]1c1ncc(-c2cc(F)c3c(c2)O[C@@H](c2cc4c(s2)CCC4)n2c-3cc3cc(-c4cnc([C@@H]5CCCN5C(=O)[C@@H](NC(=O)OC)[C@@H]5CCOC(C)(C)C5)[nH]4)ccc32)[nH]1)C(C)C	Nonstructural protein 5A (Hepatitis C virus)	nM	0.043
COC(=O)N[C@H](C(=O)N1CCC[C@H]1c1ncc(-c2cc(F)c3c(c2)O[C@@H](c2ccc4c(c2)CCCO4)n2c-3cc3cc(-c4cnc([C@@H]5CCCN5C(=O)[C@@H](NC(=O)OC)C5CCOCC5)[nH]4)ccc32)[nH]1)C(C)C	Nonstructural protein 5A (Hepatitis C virus)	nM	1.07
COC(=O)N[C@H](C(=O)N1CCC[C@H]1c1ncc(-c2cc(F)c3c(c2)O[C@@H](c2ccc(C4CC4)s2)n2c-3cc3cc(-c4cnc([C@@H]5CCCN5C(=O)[C@@H](NC(=O)OC)[C@@H]5CCOC(C)(C)C5)[nH]4)ccc32)[nH]1)C(C)C	Nonstructural protein 5A (Hepatitis C virus)	nM	0.018

###

- Study system: Nonstructural protein 5A (Hepatitis C virus)
- Sequence (whole entry): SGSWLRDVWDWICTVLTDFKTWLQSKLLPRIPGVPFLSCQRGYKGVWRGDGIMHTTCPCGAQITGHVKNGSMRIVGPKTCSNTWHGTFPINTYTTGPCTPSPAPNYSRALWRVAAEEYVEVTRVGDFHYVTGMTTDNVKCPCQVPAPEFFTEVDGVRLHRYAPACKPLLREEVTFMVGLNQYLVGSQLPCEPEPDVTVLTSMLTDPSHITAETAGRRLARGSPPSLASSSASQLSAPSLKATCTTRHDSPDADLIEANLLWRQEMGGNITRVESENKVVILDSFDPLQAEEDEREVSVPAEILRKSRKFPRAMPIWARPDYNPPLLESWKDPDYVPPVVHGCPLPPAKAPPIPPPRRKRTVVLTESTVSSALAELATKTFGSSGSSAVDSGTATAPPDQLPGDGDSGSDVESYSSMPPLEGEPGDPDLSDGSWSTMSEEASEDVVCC
- Method summary: Inhibition of NS5A L31V mutant in HCV genotype 1a infected in HuH7 replicon cells assessed as decrease in viral replication after 3 days by RT-PCR method
- Assay type: cell-based
- Experimental setup: Hepatitis C virus subtype 1a
Measured attribute: log10 of EC90 (log10 of the value in pM)

Compound string	Study system	Value observed
COC(=O)N[C@H](C(=O)N1CCC[C@H]1c1ncc(-c2ccc3c(c2)cc2n3[C@H](c3ccc4c(c3)OCCC4)Oc3cc(-c4cnc([C@@H]5CCCN5C(=O)[C@@H](NC(=O)OC)C5CCOCC5)[nH]4)cc(F)c3-2)[nH]1)C(C)C	Nonstructural protein 5A (Hepatitis C virus)	0.00
COC(=O)N[C@H](C(=O)N1CCC[C@H]1c1ncc(-c2cc(F)c3c(c2)O[C@@H](c2cnc(C4CC4)s2)n2c-3cc3cc(-c4cnc([C@@H]5CCCN5C(=O)[C@@H](NC(=O)OC)[C@@H]5CCOC(C)(C)C5)[nH]4)ccc32)[nH]1)C(C)C	Nonstructural protein 5A (Hepatitis C virus)	0.78
COC(=O)N[C@H](C(=O)N1CCC[C@H]1c1ncc(-c2ccc3c(c2)cc2n3[C@H](c3ccc(C4CC4)s3)Oc3cc(-c4cnc([C@@H]5CCCN5C(=O)[C@@H](NC(=O)OC)[C@@H]5CCOC(C)(C)C5)[nH]4)cc(F)c3-2)[nH]1)C(C)C	Nonstructural protein 5A (Hepatitis C virus)	0.00
CCc1ccc([C@@H]2Oc3cc(-c4cnc([C@@H]5CCCN5C(=O)[C@@H](NC(=O)OC)[C@@H]5CCOC(C)(C)C5)[nH]4)cc(F)c3-c3cc4cc(-c5cnc([C@@H]6CCCN6C(=O)[C@@H](NC(=O)OC)C(C)C)[nH]5)ccc4n32)s1	Nonstructural protein 5A (Hepatitis C virus)	1.66
COC(=O)N[C@H](C(=O)N1CCC[C@H]1c1ncc(-c2cc(F)c3c(c2)O[C@@H](c2cc4c(s2)CCC4)n2c-3cc3cc(-c4cnc([C@@H]5CCCN5C(=O)[C@@H](NC(=O)OC)[C@@H]5CCOC(C)(C)C5)[nH]4)ccc32)[nH]1)C(C)C	Nonstructural protein 5A (Hepatitis C virus)	0.78
CCCc1ncc([C@@H]2Oc3cc(-c4cnc([C@@H]5CCCN5C(=O)[C@@H](NC(=O)OC)C(C)C)[nH]4)cc(F)c3-c3cc4cc(-c5cnc([C@@H]6CCCN6C(=O)[C@@H](NC(=O)OC)[C@@H]6CCOC(C)(C)C6)[nH]5)ccc4n32)s1	Nonstructural protein 5A (Hepatitis C virus)	0.78
COC(=O)N[C@H](C(=O)N1CCC[C@H]1c1ncc(-c2cc(F)c3c(c2)O[C@@H](c2cc4c(s2)CCC4)n2c-3cc3cc(-c4cnc([C@@H]5CCCN5C(=O)[C@@H](NC(=O)OC)C5CCOCC5)[nH]4)ccc32)[nH]1)C(C)C	Nonstructural protein 5A (Hepatitis C virus)	1.11
COC(=O)N[C@H](C(=O)N1CCC[C@H]1c1ncc(-c2cc(F)c3c(c2)O[C@@H](c2ccc(C(F)(F)F)s2)n2c-3cc3cc(-c4cnc([C@@H]5CCCN5C(=O)[C@@H](NC(=O)OC)C5CCOCC5)[nH]4)ccc32)[nH]1)C(C)C	Nonstructural protein 5A (Hepatitis C virus)	0.70

###

- Method summary: AUC in Beagle dog at 5 mg/kg, po by LC/MS method
- Type: ADME, organism-based, Canis lupus familiaris
- Experimental setup: in vivo
Parameter: AUC. Scope: all listed entries.

Molecule	AUC / µM·h
COC(=O)N[C@H](C(=O)N1CCC[C@H]1c1ncc(-c2cc(F)c3c(c2)O[C@@H](c2ccc(C4CC4)s2)n2c-3cc3cc(-c4cnc([C@@H]5CCCN5C(=O)[C@@H](NC(=O)OC)C5C[C@@H](C)O[C@H](C)C5)[nH]4)ccc32)[nH]1)C(C)C (some centres undefined)	5.05
COC(=O)N[C@H](C(=O)N1CCC[C@H]1c1ncc(-c2cc(F)c3c(c2)O[C@@H](c2ccc(C4CC4)s2)n2c-3cc3cc(-c4cnc([C@@H]5CCCN5C(=O)[C@@H](NC(=O)OC)[C@@H]5CCOC(C)(C)C5)[nH]4)ccc32)[nH]1)C(C)C	4.19
COC(=O)N[C@H](C(=O)N1CCC[C@H]1c1ncc(-c2cc(F)c3c(c2)O[C@@H](c2ccc(C4CC4)s2)n2c-3cc3cc(-c4cnc([C@@H]5CCCN5C(=O)[C@@H](NC(=O)OC)C5C[C@@H](C)O[C@@H](C)C5)[nH]4)ccc32)[nH]1)C(C)C (some centres undefined)	2.42
COC(=O)N[C@H](C(=O)N1CCC[C@H]1c1ncc(-c2cc(F)c3c(c2)O[C@@H](c2ccc(C4CC4)s2)n2c-3cc3cc(-c4cnc([C@@H]5CCCN5C(=O)[C@@H](NC(=O)OC)C5CCOCC5)[nH]4)ccc32)[nH]1)C(C)C	2.61

###

- Method summary: Half life in Wistar Han rat at 2 mg/kg, iv by LC/MS method
- Format: ADME, organism-based
- Experimental setup: in vivo

Molecule	half-life [h]
COC(=O)N[C@H](C(=O)N1CCC[C@H]1c1ncc(-c2cc(F)c3c(c2)O[C@@H](c2ccc(C4CC4)s2)n2c-3cc3cc(-c4cnc([C@@H]5CCCN5C(=O)[C@@H](NC(=O)OC)[C@@H]5CCOC(C)(C)C5)[nH]4)ccc32)[nH]1)C(C)C	5.4
COC(=O)N[C@H](C(=O)N1CCC[C@H]1c1ncc(-c2cc(F)c3c(c2)O[C@@H](c2ccc(C4CC4)s2)n2c-3cc3cc(-c4cnc([C@@H]5CCCN5C(=O)[C@@H](NC(=O)OC)C5C[C@@H](C)O[C@H](C)C5)[nH]4)ccc32)[nH]1)C(C)C (some centres not stated)	3.6

###

- Study system: Nonstructural protein 5A (Hepatitis C virus)
- Sequence (whole entry): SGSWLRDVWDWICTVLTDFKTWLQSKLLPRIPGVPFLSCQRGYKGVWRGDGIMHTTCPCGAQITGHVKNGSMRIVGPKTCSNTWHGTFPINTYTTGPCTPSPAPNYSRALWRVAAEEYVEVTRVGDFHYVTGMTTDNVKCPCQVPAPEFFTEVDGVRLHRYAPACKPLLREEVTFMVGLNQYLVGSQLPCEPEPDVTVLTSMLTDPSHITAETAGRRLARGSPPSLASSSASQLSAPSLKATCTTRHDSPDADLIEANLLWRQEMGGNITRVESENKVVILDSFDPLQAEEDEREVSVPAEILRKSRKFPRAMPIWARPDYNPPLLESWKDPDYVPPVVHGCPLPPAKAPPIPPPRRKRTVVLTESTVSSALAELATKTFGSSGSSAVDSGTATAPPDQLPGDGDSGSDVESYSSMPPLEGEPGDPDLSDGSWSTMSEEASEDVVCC
- Method summary: Inhibition of NS5A in HCV genotype 3a infected in HuH7 replicon cells assessed as decrease in viral replication after 3 days by RT-PCR method
- Format: cell-based
- Experimental setup: Hepatitis C virus subtype 3a

Compound	Study system	EC90
CCc1ccc([C@@H]2Oc3cc(-c4cnc([C@@H]5CCCN5C(=O)[C@@H](NC(=O)OC)C(C)C)[nH]4)cc(F)c3-c3cc4cc(-c5cnc([C@@H]6CCCN6C(=O)[C@@H](NC(=O)OC)[C@@H]6CCOC(C)(C)C6)[nH]5)ccc4n32)s1	Nonstructural protein 5A (Hepatitis C virus)	9 pM
CCCc1ncc([C@@H]2Oc3cc(-c4cnc([C@@H]5CCCN5C(=O)[C@@H](NC(=O)OC)C(C)C)[nH]4)cc(F)c3-c3cc4cc(-c5cnc([C@@H]6CCCN6C(=O)[C@@H](NC(=O)OC)[C@@H]6CCOC(C)(C)C6)[nH]5)ccc4n32)s1	Nonstructural protein 5A (Hepatitis C virus)	8 pM
COC(=O)N[C@H](C(=O)N1CCC[C@H]1c1ncc(-c2cc(F)c3c(c2)O[C@@H](c2ccc4c(c2)O[C@@H](C)CC4)n2c-3cc3cc(-c4cnc([C@@H]5CCCN5C(=O)[C@@H](NC(=O)OC)[C@@H]5CCOC(C)(C)C5)[nH]4)ccc32)[nH]1)C(C)C	Nonstructural protein 5A (Hepatitis C virus)	8 pM
COC(=O)N[C@H](C(=O)N1CCC[C@H]1c1ncc(-c2cc(F)c3c(c2)O[C@@H](c2nc4c(s2)CCC4)n2c-3cc3cc(-c4cnc([C@@H]5CCCN5C(=O)[C@@H](NC(=O)OC)[C@@H]5CCOC(C)(C)C5)[nH]4)ccc32)[nH]1)C(C)C	Nonstructural protein 5A (Hepatitis C virus)	13 pM
CCc1ccc([C@@H]2Oc3cc(-c4cnc([C@@H]5CCCN5C(=O)[C@@H](NC(=O)OC)[C@@H]5CCOC(C)(C)C5)[nH]4)cc(F)c3-c3cc4cc(-c5cnc([C@@H]6CCCN6C(=O)[C@@H](NC(=O)OC)C(C)C)[nH]5)ccc4n32)s1	Nonstructural protein 5A (Hepatitis C virus)	82 pM
COC(=O)N[C@H](C(=O)N1CCC[C@H]1c1ncc(-c2cc(F)c3c(c2)O[C@@H](c2ccc(C4CC4)s2)n2c-3cc3cc(-c4cnc([C@@H]5CCCN5C(=O)[C@@H](NC(=O)OC)C5C[C@@H](C)O[C@H](C)C5)[nH]4)ccc32)[nH]1)C(C)C (stereo partly drawn)	Nonstructural protein 5A (Hepatitis C virus)	7 pM
COC(=O)N[C@H](C(=O)N1CCC[C@H]1c1ncc(-c2cc(F)c3c(c2)O[C@@H](c2cc4c(s2)CCC4)n2c-3cc3cc(-c4cnc([C@@H]5CCCN5C(=O)[C@@H](NC(=O)OC)C5CCOCC5)[nH]4)ccc32)[nH]1)C(C)C	Nonstructural protein 5A (Hepatitis C virus)	22 pM
COC(=O)N[C@H](C(=O)N1CCC[C@H]1c1ncc(-c2cc(F)c3c(c2)O[C@@H](c2ccc(C(C)C)s2)n2c-3cc3cc(-c4cnc([C@@H]5CCCN5C(=O)[C@@H](NC(=O)OC)[C@@H]5CCOC(C)(C)C5)[nH]4)ccc32)[nH]1)C(C)C	Nonstructural protein 5A (Hepatitis C virus)	6 pM
